Assembled from different publications: pIC50 for Serine/threonine-protein kinase pim-1 (Homo sapiens, UniProt P11309).
Entry type: numeric. Quantity: pIC50, the -log10 of concentration in molar units.

Which pIC50 reading was recorded for the compound CCOCc1cc(F)c(-c2nc(C(=O)Nc3cnccc3[C@H]3C[C@@H](N)[C@@H](O)[C@@H](C)C3)ccc2F)c(F)c1 ? 9.89

Field entry: COC1(c2cc(F)c(-c3nc(C(=O)Nc4cnccc4N4C[C@@H](N)[C@H](O)[C@@H](C)C4)ccc3F)c(F)c2)COC1 10.70

Now consider CCOCCOc1cc(F)c(-c2nc(C(=O)Nc3cnccc3[C@H]3C[C@@H](N)[C@H](O)[C@@H](C)C3)ccc2F)c(F)c1 and answer again. 9.35

Again, but for C[C@@H]1C[C@H](N)C[C@H](c2ccncc2NC(=O)c2ccc(F)c(-c3c(F)cc(OC4CCOCC4)cc3F)n2)C1 11.00

Could you do the same for Nc1ccc(-c2nccs2)nc1-c1cc2c(N3CCC[C@H](N)C3)ccnc2cn1 , please? 9.00

Same for CN1CCCC(Nc2nc3c(Br)c(Br)c(Br)c(Br)c3[nH]2)CC1 (stereo not shown) 8.24

How about CC1(N)CCN(c2cccc3ccc(-c4nnc5ccccn45)nc23)CC1 ? 7.68

###

Compiled literature pIC50, tested on Serine/threonine-protein kinase pim-1 (Homo sapiens, UniProt P11309).
Expect pIC50 as a plain number equal to -log10 of the molar concentration.

Recall the recorded pIC50 for C[C@H]1CN(c2ccncc2NC(=O)c2ccc(F)c(-c3c(F)cc([C@H](O)CO)cc3F)n2)C[C@@H](N)[C@@H]1O with Serine/threonine-protein kinase pim-1 (Homo sapiens, UniProt P11309) and state it. 10.40

Also CSc1cc(F)c(-c2nc(C(=O)Nc3cnccc3N3C[C@@H](N)[C@H](O)[C@@H](C)C3)ccc2F)c(F)c1 ? 10.70

Try the compound CC(C)[C@H](N)C(=O)OCCOc1cc2nc(-c3nnc4ccc([C@@H](N5CC[C@H](N)C5)C(F)(F)F)cn34)ccc2cc1F 7.53

Input C[C@H]1CN(c2ccncc2NC(=O)c2ccc(F)c(-c3c(F)cc(O[C@H]4CCCOC4)cc3F)n2)C[C@@H](N)[C@@H]1O 11.00

Same thing, different compound: NC1CCC(Nc2nc3c(Br)c(Br)c(Br)c(Br)c3[nH]2)CC1 (stereo not shown) 7.82

For COCCOc1cc(F)c(-c2nc(C(=O)Nc3cnccc3N3C[C@@H](N)[C@H](O)[C@@H](C)C3)ccc2F)c(F)c1 then? 10.52

# iterate: Cc1noc(C)c1-c1cc(F)c(-c2nc(C(=O)Nc3cnccc3[C@@H]3C[C@H](C)C[C@H](N)C3)ccc2F)c(F)c1 10.10

Lookup CC(C)Oc1ccc2ccc(-c3nnc4ccc([C@H](N5CC[C@](C)(N)C5)C(F)(F)F)cn34)nc2c1 9.66

Entry C[C@@H]1C[C@H](N)C[C@H](c2ccncc2NC(=O)c2nc(-c3c(F)cc(C4(O)CCC4)cc3F)c(F)cc2N)C1 please 11.00

// next record Nc1cc(F)c(F)cc1Nc1nc2c(Br)c(Br)c(Br)c(Br)c2[nH]1 7.31

How about N[C@H]1CCN([C@@H](c2ccc3nnc(-c4ccc5ccc(C6CC6)cc5n4)n3c2)C(F)(F)F)C1 (single isomer, unassigned) ? 9.40

What do you get for CN(C)CCCN(Cc1ccccc1)c1nc2c(Br)c(Br)c(Br)c(Br)c2[nH]1 ? 7.18

Same question, C[C@@H]1C[C@H](N)C[C@H](c2ccncc2NC(=O)c2ccc(F)c(-c3c(F)cc(C4(O)CCCC4)cc3F)n2)C1 this time 11.00

Would you kindly repeat that for CC(C)Oc1cccc2ccc(-c3nnc4ccc([C@H](N5CCC(C)(O)C5)C(F)(F)F)cn34)nc12 (single isomer, unassigned; diastereomer 1) ? 7.73

For Cc1cc(-c2ccc3ccc(-c4nnc5ccc([C@@H](N6CC[C@H](N)C6)C(F)(F)F)cn45)nc3c2C)n(C)n1 then? 9.19

Now the same for C[C@@H]1C[C@H](N)C[C@H](c2ccncc2NC(=O)c2ccc(F)c(-c3c(F)cc([C@H]4CCOC4)cc3F)n2)C1 11.00

Could you do the same for CCOCc1cc(F)c(-c2nc(C(=O)Nc3cnccc3[C@@H]3C[C@H](C)C[C@H](N)C3)ccc2F)c(F)c1 , please? 11.00

Same question, C[C@H]1C[C@@H](c2ccncc2NC(=O)c2ccc(F)c(-c3c(F)cc(C4CCOCC4)cc3F)n2)C[C@@H](N)[C@@H]1O this time 11.00

Next compound: C[C@H]1C[C@@H](c2ccncc2NC(=O)c2csc(C3CCCCC3)n2)C[C@@H](N)[C@@H]1O 6.84

Next compound up: Brc1c(Br)c(Br)c2[nH]c(Nc3ccccc3)nc2c1Br 7.17

What do you get for CC(C)NC(=O)c1ccc(F)c(-c2ccc(N)c(-c3cc4c(N5CCC[C@@H](N)C5)ccnc4cn3)n2)c1 ? 7.80

Likewise for COC1(c2cc(F)c(-c3nc(C(=O)Nc4cnccc4[C@@H]4C[C@H](C)C[C@H](N)C4)c(N)cc3F)c(F)c2)COC1 ? 11.00
